biological target: hSSB1 (Homo sapiens, UniProt Q9BQ15 Q9BQ15:1-211); test: SPR
Sequence (Q9BQ15 whole entry, one chain of several): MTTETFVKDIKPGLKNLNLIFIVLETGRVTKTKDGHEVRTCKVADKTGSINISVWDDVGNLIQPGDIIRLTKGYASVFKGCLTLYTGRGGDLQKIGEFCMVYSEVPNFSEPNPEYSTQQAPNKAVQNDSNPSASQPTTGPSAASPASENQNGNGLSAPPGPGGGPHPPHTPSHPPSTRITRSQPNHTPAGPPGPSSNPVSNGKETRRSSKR
Readout Label: binding signal (normalized Rmax)
Numbers only, in normalized Rmax.

// known answers, use as guide
>  <Binder>
GGAGGGAGUCGGACUUGUCU (ssRNA, 2'-OMe all, full PS) [DKLS444294 (SEQ 65)]

>  <Endpoint Unit>
normalized Rmax

>  <Recorded Result>
1.58

$$$$
>  <Binder>
UCUCCCAGCAUGUGCCAU (ssRNA, 2'-OMe all, full PS) [DKLS832163 (SEQ 11)]

>  <Endpoint Unit>
normalized Rmax

>  <Recorded Result>
0.31

$$$$
>  <Binder>
UGUGCUAUUCUGUGAAUU (ssRNA, 2'-OMe all, full PS) [DKLS484655 (SEQ 22)]

>  <Endpoint Unit>
normalized Rmax

>  <Recorded Result>
0.43

$$$$

Please give binding signal for each item listed below.
1. UAAGCUGUUCUAUGUGUU (ssRNA, 2'-OMe all, full PS) [DKLS463500 (SEQ 23)]
2. CUAGUAAGUCGGACUUGCCU (ssRNA, 2'-OMe all, full PS) [DKLS447399 (SEQ 63)]

A:
[0.74, 1.22]
